Where these numbers come from: patent US9561288B2

# System: NCI-60 human tumor cell line panel
# measurement_notes: NCI-60 human tumor cell line panel
# Type: cell-based
# condition_parameters: NCI 60 panel
readout_name: IC50

Inquiry: Consider the compound shown here: COc1cc2c(c(OC)c1OC)-c1ccc(SC)c(=O)cc1[C@@H](NC(=O)CCNC(=O)N[C@H]1CCc3cc(OC)c(OC)c(OC)c3-c3ccc(SC)c(=O)cc31)CC2 [IDN5404] What is its recorded IC50?
Reply text: < 10 nM

====

# Test system: MCF7-S breast carcinoma
# measurement_notes: Cytotoxic activity in MCF7-S
# Format: cell-based, human
readout_name: pIC50
Would you please state pIC50, meaning minus log10 of the concentration in mol/L, as a bare number?

Inquiry: Consider the compound shown here: COc1cc2c(c(OC)c1OC)-c1ccc(SC)c(=O)cc1[C@@H](NC(=O)CCNC(=O)N[C@H]1CCc3cc(OC)c(OC)c(OC)c3-c3ccc(SC)c(=O)cc31)CC2 What is its recorded pIC50?
Reply text: 8.77
